Molecular target: complexe de recapture de la dopamine (Rattus norvegicus, UniProt P23977)
Construct: expériences de compétition sur les membranes de striatum préparées comme ci-dessus; from tissue; host or cells: rat striatal membranes
Sequence (P23977 whole entry, one chain of several): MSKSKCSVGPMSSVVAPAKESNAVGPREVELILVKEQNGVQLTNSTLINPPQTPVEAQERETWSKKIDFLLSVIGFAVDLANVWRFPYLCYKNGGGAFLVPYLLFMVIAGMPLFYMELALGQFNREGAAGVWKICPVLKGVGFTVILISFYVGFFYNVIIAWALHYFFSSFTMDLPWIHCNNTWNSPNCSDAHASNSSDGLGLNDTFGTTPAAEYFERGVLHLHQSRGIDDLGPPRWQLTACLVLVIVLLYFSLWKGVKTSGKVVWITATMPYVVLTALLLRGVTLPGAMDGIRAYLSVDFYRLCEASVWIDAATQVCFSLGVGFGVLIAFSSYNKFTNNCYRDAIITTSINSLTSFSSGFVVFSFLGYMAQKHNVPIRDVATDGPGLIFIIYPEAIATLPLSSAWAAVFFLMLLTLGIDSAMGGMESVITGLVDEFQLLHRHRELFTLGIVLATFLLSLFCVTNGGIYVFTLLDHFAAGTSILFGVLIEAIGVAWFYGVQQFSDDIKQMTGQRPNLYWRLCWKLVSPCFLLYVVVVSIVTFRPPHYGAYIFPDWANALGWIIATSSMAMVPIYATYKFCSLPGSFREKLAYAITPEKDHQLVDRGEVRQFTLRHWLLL
Assay: biochemical
Type: binding
Conditions: rat striatal membranes, 0,2 nM (3H)BTCP, 90 min at 4°C; read-out: [3H] BTCP IC50
ASSAY_ENDPOINT: log10(IC50) (log10 of the value in nM)
Base-10 log of IC50, unit nM.

> print(dat)
                                   compound                         system.under.test  readout.value
1  BrCC1CCCN(C2(c3cc4ccccc4s3)CCCCC2)C1 (centres unmarked)  complexe de recapture de la dopamine (Rattus norvegicus, UniProt P23977)           1.54
2  ClCC1CCCN(C2(c3cc4ccccc4s3)CCCCC2)C1 (centres unmarked)  complexe de recapture de la dopamine (Rattus norvegicus, UniProt P23977)           2.01
3  CC1CCCC(c2cc3ccccc3s2)(N2CCCCC2)C1 (centres unmarked)  complexe de recapture de la dopamine (Rattus norvegicus, UniProt P23977)           2.77
4  CC1CCCCC1(c1cc2ccccc2s1)N1CCCCC1 (centres unmarked)  complexe de recapture de la dopamine (Rattus norvegicus, UniProt P23977)           3.17

Kindly review the next compound as well.
## Task What value of measured log10(IC50) is listed for OCC1CCCN(C2(c3cc4ccccc4s3)CCCCC2)C1 (centres unmarked) ?
## Result 1.26
